# Tested on: Mycobacterium tuberculosis
# protocol.text: Antimycobacterial activity against Mycobacterium tuberculosis H37Rv ATCC 27294 at 50 ug/ml after 7 days by microplate alamar blue assay relative to control
# Type: functional
# conditions.used: H37Rv ATCC 27294, 168 h
In this section, each of the compounds is paired with its reported inhibition at 50 µg/mL.
quantity.measured: inhibition at 50 µg/mL

[[record]]
input_smiles = "CC(C)=CCOc1cccc(NC(=O)Nc2ccccc2[N+](=O)[O-])c1"
assayed_system = "Mycobacterium tuberculosis"
value_reported = "43%"

[[record]]
input_smiles = "CCCCOc1ccc(NC(=O)Nc2ccccc2)cc1"
assayed_system = "Mycobacterium tuberculosis"
value_reported = "41%"

[[record]]
input_smiles = "CC(C)=CCOc1cccc(NC(=O)Nc2ccc([N+](=O)[O-])cc2)c1"
assayed_system = "Mycobacterium tuberculosis"
value_reported = "94%"

[[record]]
input_smiles = "C=CCOc1cccc(NC(=O)Nc2cccc([N+](=O)[O-])c2)c1"
assayed_system = "Mycobacterium tuberculosis"
value_reported = "76%"

[[record]]
input_smiles = "CC(C)=CCOc1cccc(NC(=O)Nc2ccccc2F)c1"
assayed_system = "Mycobacterium tuberculosis"
value_reported = "45%"

[[record]]
input_smiles = "C=CCOc1cccc(NC(=O)Nc2ccccc2C)c1"
assayed_system = "Mycobacterium tuberculosis"
value_reported = "68%"

[[record]]
input_smiles = "C=CCOc1ccc(NC(=O)Nc2cccc(C#N)c2)cc1"
assayed_system = "Mycobacterium tuberculosis"
value_reported = "66%"

[[record]]
input_smiles = "C=CCOc1cccc(NC(=O)Nc2ccccc2)c1"
assayed_system = "Mycobacterium tuberculosis"
value_reported = "73%"

[[record]]
input_smiles = "CC(C)=CCOc1cccc(NC(=O)Nc2ccccc2Cl)c1"
assayed_system = "Mycobacterium tuberculosis"
value_reported = "64%"

[[record]]
input_smiles = "CC(C)=CCOc1cccc(NC(=O)Nc2ccc(Cl)cc2)c1"
assayed_system = "Mycobacterium tuberculosis"
value_reported = "75%"

[[record]]
input_smiles = "CC(C)=CCOc1cccc(NC(=O)Nc2ccccc2)c1"
assayed_system = "Mycobacterium tuberculosis"
value_reported = "79%"

[[record]]
input_smiles = "CC(C)=CCOc1cccc(NC(=O)Nc2ccccc2C(F)(F)F)c1"
assayed_system = "Mycobacterium tuberculosis"
value_reported = "45%"

[[record]]
input_smiles = "CCCCOc1cccc(NC(=O)Nc2cccc([N+](=O)[O-])c2)c1"
assayed_system = "Mycobacterium tuberculosis"
value_reported = "79%"

[[record]]
input_smiles = "CC(C)=CCOc1cccc(NC(=O)Nc2ccc(Br)cc2)c1"
assayed_system = "Mycobacterium tuberculosis"
value_reported = "86%"

[[record]]
input_smiles = "CC(C)=CCOc1cccc(NC(=O)Nc2ccc(F)cc2)c1"
assayed_system = "Mycobacterium tuberculosis"
value_reported = "68%"

[[record]]
input_smiles = "CC(C)=CCOc1ccc(NC(=O)Nc2ccccc2C)cc1"
assayed_system = "Mycobacterium tuberculosis"
value_reported = "61 to 75%"

[[record]]
input_smiles = "CCCCOc1cccc(NC(=O)Nc2ccccc2C)c1"
assayed_system = "Mycobacterium tuberculosis"
value_reported = "70%"

[[record]]
input_smiles = "CC(C)=CCOc1cccc(NC(=O)Nc2cccc(F)c2)c1"
assayed_system = "Mycobacterium tuberculosis"
value_reported = "89%"

[[record]]
input_smiles = "CCCCOc1ccc(NC(=O)Nc2cccc(C#N)c2)cc1"
assayed_system = "Mycobacterium tuberculosis"
value_reported = "22%"

[[record]]
input_smiles = "CC(C)=CCOc1ccc(NC(=O)Nc2cccc(C#N)c2)cc1"
assayed_system = "Mycobacterium tuberculosis"
value_reported = "82%"

[[record]]
input_smiles = "CC(C)=CCOc1cccc(NC(=O)Nc2ccc(C(F)(F)F)cc2)c1"
assayed_system = "Mycobacterium tuberculosis"
value_reported = "69%"

[[record]]
input_smiles = "CC(C)=CCOc1ccc(NC(=O)Nc2cccc([N+](=O)[O-])c2)cc1"
assayed_system = "Mycobacterium tuberculosis"
value_reported = "69%"

[[record]]
input_smiles = "C=CCOc1ccc(NC(=O)Nc2ccccc2)cc1"
assayed_system = "Mycobacterium tuberculosis"
value_reported = "84%"

[[record]]
input_smiles = "CCCCOc1cccc(NC(=O)Nc2ccccc2)c1"
assayed_system = "Mycobacterium tuberculosis"
value_reported = "57%"


* * *

In this section, each of the compounds is paired with its reported Activity.
# Tested on: Peritoneal macrophage
# protocol.text: Cytotoxicity against Balb/c mouse peritoneal macrophages assessed as reduction in cell viability after 48 hrs by MTT assay
# Assay type: cell-based
quantity.measured: Activity (µg/mL)

[[record]]
input_smiles = "CC(C)=CCOc1cccc(NC(=O)Nc2ccccc2Cl)c1"
assayed_system = "Peritoneal macrophage"
quantity_measured = "Activity"
value_comparator = "="
value_reported = 105.6

[[record]]
input_smiles = "C=CCOc1cccc(NC(=O)Nc2ccccc2)c1"
assayed_system = "Peritoneal macrophage"
quantity_measured = "Activity"
value_comparator = "="
value_reported = 142.5

[[record]]
input_smiles = "CC(C)=CCOc1cccc(NC(=O)Nc2ccccc2[N+](=O)[O-])c1"
assayed_system = "Peritoneal macrophage"
quantity_measured = "Activity"
value_comparator = "="
value_reported = 58.1

[[record]]
input_smiles = "C=CCOc1ccc(NC(=O)Nc2cccc([N+](=O)[O-])c2)cc1"
assayed_system = "Peritoneal macrophage"
quantity_measured = "Activity"
value_comparator = "="
value_reported = 87.5

[[record]]
input_smiles = "NNC(=O)c1ccncc1"
assayed_system = "Peritoneal macrophage"
quantity_measured = "Activity"
value_comparator = ">"
value_reported = 200


* * *

# Tested on: HepG2
# protocol.text: Cytotoxicity against human HepG2 cells assessed as reduction in cell viability after 72 hrs by MTT assay
# Type: cell-based
# conditions.used: hepg2, 72 h
In this section, each of the compounds is paired with its reported Activity.
quantity.measured: Activity (µg/mL)

[[record]]
compound = "C=CCOc1ccc(NC(=O)Nc2ccccc2C)cc1"
assayed_system = "HepG2"
value_comparator = "="
value_reported = 99.2

[[record]]
compound = "NNC(=O)c1ccncc1 [ISONIAZID]"
assayed_system = "HepG2"
value_comparator = ">"
value_reported = 200

[[record]]
compound = "C=CCOc1ccc(NC(=O)Nc2ccccc2)cc1"
assayed_system = "HepG2"
value_comparator = "="
value_reported = 182.4

[[record]]
compound = "CC(C)=CCOc1cccc(NC(=O)Nc2ccc(C(F)(F)F)cc2)c1"
assayed_system = "HepG2"
value_comparator = "="
value_reported = 142.2


* * *

# Test system: Peritoneal macrophage
# protocol.text: Cytotoxicity against Balb/c mouse peritoneal macrophages assessed as reduction in cell viability after 48 hrs by MTT assay
# Format: cell-based
1.0 means recorded Activity is 100 µg/mL or above; 0.0 means it is below 100 µg/mL.

[[record]]
input_smiles = "CCCCOc1ccc(NC(=O)Nc2cccc([N+](=O)[O-])c2)cc1"
assayed_system = "Peritoneal macrophage"
discrete_label = 0.0

[[record]]
input_smiles = "CCCCOc1ccc(NC(=O)Nc2ccccc2C)cc1"
assayed_system = "Peritoneal macrophage"
discrete_label = 1.0

[[record]]
input_smiles = "CC(C)=CCOc1cccc(NC(=O)Nc2cccc([N+](=O)[O-])c2)c1"
assayed_system = "Peritoneal macrophage"
discrete_label = 0.0

[[record]]
input_smiles = "CCCCOc1ccc(NC(=O)Nc2cccc(C#N)c2)cc1"
assayed_system = "Peritoneal macrophage"
discrete_label = 1.0

[[record]]
input_smiles = "CC(C)=CCOc1cccc(NC(=O)Nc2ccccc2)c1"
assayed_system = "Peritoneal macrophage"
discrete_label = 1.0

[[record]]
input_smiles = "C=CCOc1ccc(NC(=O)Nc2ccccc2)cc1"
assayed_system = "Peritoneal macrophage"
discrete_label = 1.0

[[record]]
input_smiles = "CC(C)=CCOc1cccc(NC(=O)Nc2ccc(C)cc2)c1"
assayed_system = "Peritoneal macrophage"
discrete_label = 1.0

[[record]]
input_smiles = "CCCCOc1ccc(NC(=O)Nc2ccccc2)cc1"
assayed_system = "Peritoneal macrophage"
discrete_label = 1.0

[[record]]
input_smiles = "CC(C)=CCOc1cccc(NC(=O)Nc2ccc(F)cc2)c1"
assayed_system = "Peritoneal macrophage"
discrete_label = 0.0

[[record]]
input_smiles = "CC(C)=CCOc1cccc(NC(=O)Nc2cccc(C(F)(F)F)c2)c1"
assayed_system = "Peritoneal macrophage"
discrete_label = 1.0

[[record]]
input_smiles = "C=CCOc1cccc(NC(=O)Nc2ccccc2C)c1"
assayed_system = "Peritoneal macrophage"
discrete_label = 0.0

[[record]]
input_smiles = "CC(C)=CCOc1cccc(NC(=O)Nc2cccc(F)c2)c1"
assayed_system = "Peritoneal macrophage"
discrete_label = 0.0


* * *

# Test system: Peritoneal macrophage
# protocol.text: Cytotoxicity against Balb/c mouse peritoneal macrophages assessed as reduction in cell viability after 48 hrs by MTT assay
# Type: cell-based
Checkbox rule: Activity lower than 100 µg/mL = true (1); Activity not lower than 100 µg/mL = false (0).

[[record]]
molecule = "CC(C)CCOc1ccc(NC(=S)Nc2ccc(OCCC(C)C)cc2)cc1 [TIOCARLIDE]"
discrete_label = "true (1)"

[[record]]
molecule = "CC(C)=CCOc1cccc(NC(=O)Nc2cccc(C)c2)c1"
discrete_label = "false (0)"

[[record]]
molecule = "CC(C)=CCOc1ccc(NC(=O)Nc2ccccc2)cc1"
discrete_label = "false (0)"

[[record]]
molecule = "CC(C)=CCOc1cccc(NC(=O)Nc2ccccc2Br)c1"
discrete_label = "false (0)"

[[record]]
molecule = "CC(C)=CCOc1cccc(NC(=O)Nc2ccc(Br)cc2)c1"
discrete_label = "false (0)"

[[record]]
molecule = "CC(C)=CCOc1cccc(NC(=O)Nc2ccccc2C(F)(F)F)c1"
discrete_label = "true (1)"

[[record]]
molecule = "C=CCOc1cccc(NC(=O)Nc2cccc([N+](=O)[O-])c2)c1"
discrete_label = "true (1)"

[[record]]
molecule = "C=CCOc1ccc(NC(=O)Nc2ccccc2C)cc1"
discrete_label = "false (0)"

[[record]]
molecule = "CC(C)=CCOc1cccc(NC(=O)Nc2cccc(Br)c2)c1"
discrete_label = "false (0)"

[[record]]
molecule = "CCCCOc1cccc(NC(=O)Nc2cccc([N+](=O)[O-])c2)c1"
discrete_label = "true (1)"

[[record]]
molecule = "CC(C)=CCOc1ccc(NC(=O)Nc2cccc(C#N)c2)cc1"
discrete_label = "false (0)"

[[record]]
molecule = "CC(C)=CCOc1cccc(NC(=O)Nc2ccc(C(F)(F)F)cc2)c1"
discrete_label = "false (0)"

[[record]]
molecule = "CC(C)=CCOc1cccc(NC(=O)Nc2ccccc2C)c1"
discrete_label = "false (0)"

[[record]]
molecule = "CC(C)=CCOc1cccc(NC(=O)Nc2ccc(Cl)cc2)c1"
discrete_label = "false (0)"

[[record]]
molecule = "CC(C)=CCOc1cccc(NC(=O)Nc2cccc(C(=O)O)c2)c1"
discrete_label = "false (0)"

[[record]]
molecule = "C=CCOc1ccc(NC(=O)Nc2cccc(C#N)c2)cc1"
discrete_label = "true (1)"

[[record]]
molecule = "CC(C)=CCOc1cccc(NC(=O)Nc2cccc(C#N)c2)c1"
discrete_label = "false (0)"

[[record]]
molecule = "CC(C)=CCOc1ccc(NC(=O)Nc2ccccc2C)cc1"
discrete_label = "true (1)"

[[record]]
molecule = "CC(C)=CCOc1cccc(NC(=O)Nc2ccccc2F)c1"
discrete_label = "true (1)"

[[record]]
molecule = "CC(C)=CCOc1cccc(NC(=O)Nc2cccc(Cl)c2)c1"
discrete_label = "true (1)"

[[record]]
molecule = "CCCCOc1cccc(NC(=O)Nc2ccccc2C)c1"
discrete_label = "false (0)"

[[record]]
molecule = "CC(C)=CCOc1ccc(NC(=O)Nc2cccc([N+](=O)[O-])c2)cc1"
discrete_label = "false (0)"

[[record]]
molecule = "CCCCOc1cccc(NC(=O)Nc2ccccc2)c1"
discrete_label = "false (0)"

[[record]]
molecule = "CC(C)=CCOc1cccc(NC(=O)Nc2ccc([N+](=O)[O-])cc2)c1"
discrete_label = "true (1)"


Entry source: ChEMBL document CHEMBL4041500
